assay-text: qHTS assay to identify small molecule agonists of the estrogen related receptor signaling pathway with the pleiotropic PPARgamma coactivator (PGC) from Tox21 10K library (AID 1224842); also: nearly all actives have a fitted effect of over 15% in size
recorded-conditions: PGC/ERR reporter cell line, luciferase ONE-Glo, 18 h; series mostly up to 92.4 µM
Records with an inconclusive call do not appear. Activity calls are given as the source filed them. Calls follow the shape of the dose curve; as a rule, active = well fitted activation curve with a large enough effect in the repeat runs; inconclusive = weak or mixed curves, or effect the other way; inactive = no such curve, though single readings can be large or run the other way.
Please reply with one of these outcomes: 1.0 (active), 0.0 (inactive)

Short answer needed: outcome of this test for O=c1[nH]c2cc(Cl)ccc2n1C1CCNCC1 ?
0.0

How was N#Cc1sc2c(=O)c3ccccc3c(=O)c=2sc1C#N classified in this test?
0.0

Recorded test outcome, item CC(C)N(C(=O)CCl)c1ccccc1
0.0

Recorded call for COC(=O)/C=C(\C)OP(=O)(OC)OC ?
0.0

State the result this test recorded for ClSC(Cl)(Cl)Cl .
0.0

For CC(=O)[O][Pb]([c]1ccccc1)([c]1ccccc1)[c]1ccccc1 , which call appears in the assay record?
0.0

So what was the verdict on CNC(=O)Oc1cc(C)cc(C(C)C)c1 in this test?
0.0

Would you mind telling me which call this test gave CCC1COC(Cn2cncn2)(c2ccc(Cl)cc2Cl)O1 (centres undefined) ?
0.0

Hey, what did the test say about O=C1C2(Cl)C3(Cl)C4(Cl)C(Cl)(Cl)C5(Cl)C3(Cl)C1(Cl)C5(Cl)C24Cl (centres undefined) ?
0.0

So what was the verdict on CC(Cc1ccc(OCC(=O)O)cc1)NCC(O)c1csc(C(F)(F)F)n1 (centres undefined) in this test?
0.0

Per the records of this test, what outcome belongs to CCOP(=S)(OCC)SC(CCl)N1C(=O)c2ccccc2C1=O (centres undefined) ?
0.0

Record lookup: outcome of this test for COP(=O)(OC)O/C(=C\Cl)c1cc(Cl)c(Cl)cc1Cl ?
0.0

Assay result, entry c1ccc2c(c1)cc1ccc3cccc4ccc2c1c34 — outcome?
1.0

Recorded call for O=C1C[C@@H]2OCC=C3CN4CC[C@]56c7ccccc7N1[C@H]5[C@H]2[C@H]3C[C@H]46 ?
0.0

Look up the recorded call for Cc1ccn2nc(S(=O)(=O)Nc3c(F)cccc3F)nc2n1 in this test.
0.0

Tell me the assay call for CC(=O)[O][Sn]([c]1ccccc1)([c]1ccccc1)[c]1ccccc1 please.
0.0

For Nc1cc(Cl)ccc1Cl , which call appears in the assay record?
0.0

For C=CC(=O)[O][Sn]([CH2]CCC)([CH2]CCC)[CH2]CCC , which call appears in the assay record?
0.0

Which outcome did this test record for the molecule CCCCN(CCCC)C(=S)S ?
0.0

Could you kindly confirm the outcome this assay logged for N#CC(C#N)=NNc1cccc(Cl)c1 ?
0.0

What call does the record list for ClC1(Cl)C2(Cl)C3(Cl)C4(Cl)C(Cl)(Cl)C5(Cl)C3(Cl)C1(Cl)C5(Cl)C24Cl (centres undefined) ?
0.0

Kindly provide the recorded test outcome for the following molecule: O=C1C(Cl)=C(Cl)C(=O)C(Cl)=C1Cl
0.0

What was the test verdict on CCOC(=O)CCN(SN(C)C(=O)Oc1cccc2c1OC(C)(C)C2)C(C)C ?
0.0

Write down the call the test reported for this molecule. Item: CN1CCc2cc(Cl)c(O)cc2[C@H]2c3ccccc3CC[C@@H]21
0.0

Please let me know the test result on file for Oc1ccc2[nH]cc(CCCCN3CC=C(c4ccccc4)CC3)c2c1 .
0.0

Hey, what did the test say about ClC1=C(Cl)[C@]2(Cl)[C@@H]3[C@H]4C[C@H]([C@@H]5O[C@H]45)[C@@H]3[C@@]1(Cl)C2(Cl)Cl ?
0.0

Per the assay record, what outcome was assigned to Cc1nn(-c2cc(NS(C)(=O)=O)c(Cl)cc2Cl)c(=O)n1C(F)F ?
0.0

Kindly provide the recorded test outcome for the following molecule: N#Cc1c[nH]cc1-c1cccc2c1OC(F)(F)O2
0.0

Kindly provide the recorded test outcome for the following molecule: O=c1c2ccccc2c(=O)c2c1cc(Cl)c1[nH]c3c([nH]c12)c(Cl)cc1c(=O)c2ccccc2c(=O)c13
0.0

Can you look up the reported call for Oc1cccc(Cl)c1Cl for me?
0.0

Please state the recorded outcome for this molecule: O=[N+]([O-])c1ccc(Cl)c(Cl)c1Cl
0.0

For CNC(=O)O/N=C(\C)C(C)S(C)(=O)=O (centres undefined) , which call appears in the assay record?
0.0

What was the test verdict on CC(Cc1ccc2c(c1)OCO2)NO (centres undefined) ?
0.0

Fill in: this test's call for CCN1CCC2(CC1)COc1cc3c(cc12)N(C(=O)c1ccc(-c2ccc(-c4nnc(C)o4)cc2C)cc1)CC3 is ___
0.0

Called result for CCC[CH2][Sn]([CH2]CCC)([O]C(C)=O)[O]C(C)=O
0.0

Would you mind telling me which call this test gave Clc1ccc(C2(Cn3cncn3)OCCO2)c(Cl)c1 ?
0.0

Hi, sorry to bother you, what did the test record for CNC(=O)/C=C(\C)OP(=O)(OC)OC ?
0.0

Please indicate how the test categorized Oc1ccc([C@H]2CNCc3c2ccc(O)c3O)cc1O .
0.0

Recorded test outcome, item Fc1ccc(C(OCCN2CCN(CCCc3ccccc3)CC2)c2ccc(F)cc2)cc1
0.0

What outcome does the record of this test show for CN=C=O ?
0.0

// outcome(item) with item = C[C@H]1[C@H](c2ccc(Cl)cc2)SC(=O)N1C(=O)NC1CCCCC1
0.0

Kindly provide the recorded test outcome for the following molecule: O=[N+]([O-])c1ccccc1-c1ccccc1
0.0

In this assay, the call recorded for CC1(C)C(C=C(Cl)Cl)C1C(=O)OC(C#N)c1ccc(F)c(Oc2ccccc2)c1 (centres undefined) was what?
0.0

Fill in: this test's call for CCOP(=S)(OCC)Oc1cc(C)nc(N(CC)CC)n1 is ___
0.0

Please state the recorded outcome for this molecule: COP(=S)(OC)Oc1ccc([N+](=O)[O-])c(C)c1
0.0

Recorded test call requested for ClCBr
0.0

Hi, do you know how CC(C)(C)c1ccc(OP(=O)(Oc2ccccc2)Oc2ccccc2)cc1 came out in this test?
0.0

Tell me the assay call for Cc1cnc2c(C(=O)O)c(Cl)ccc2c1 please.
0.0

Hey, what did the test say about O=[N+]([O-])C(Br)Br ?
0.0
